Please go through the items and note down their Binding signal (MFI).
# ASSAY SYSTEM: MERS-CoV (NCoV/Novel coronavirus) Spike Protein fragment (RBD, aa 367-606, His Tag) (Sino 40071-V08B1) (MERS-CoV), K9N5Q8
# ASSAY REMARKS: Luminex bead assay, antigen on microspheres, antibody supernatant
# SETTINGS: remark: other sources report otherwise
Numbers only, in MFI.

# BINDER, Binding signal (MFI)
measured = [
    ("mAb10998 (antibody, V domains shown) VH: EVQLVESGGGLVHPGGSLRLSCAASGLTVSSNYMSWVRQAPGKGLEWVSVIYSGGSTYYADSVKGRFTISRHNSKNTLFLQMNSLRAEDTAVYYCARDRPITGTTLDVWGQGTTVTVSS VL: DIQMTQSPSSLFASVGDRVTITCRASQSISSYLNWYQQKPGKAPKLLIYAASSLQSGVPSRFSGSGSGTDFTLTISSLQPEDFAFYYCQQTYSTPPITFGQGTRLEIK", 24),
    ("mAb11006 (antibody, V domains shown) VH: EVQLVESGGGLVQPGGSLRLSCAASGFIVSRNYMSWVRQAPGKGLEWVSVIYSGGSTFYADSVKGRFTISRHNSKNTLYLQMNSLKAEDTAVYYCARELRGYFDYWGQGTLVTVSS VL: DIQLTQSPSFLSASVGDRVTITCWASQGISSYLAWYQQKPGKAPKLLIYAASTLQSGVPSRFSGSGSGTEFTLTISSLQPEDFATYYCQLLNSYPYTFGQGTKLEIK", 15),
    ("mAb11008 (antibody, V domains shown) VH: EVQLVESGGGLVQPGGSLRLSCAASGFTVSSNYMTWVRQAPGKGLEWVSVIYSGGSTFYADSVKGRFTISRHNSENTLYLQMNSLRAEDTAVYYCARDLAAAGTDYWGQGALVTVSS VL: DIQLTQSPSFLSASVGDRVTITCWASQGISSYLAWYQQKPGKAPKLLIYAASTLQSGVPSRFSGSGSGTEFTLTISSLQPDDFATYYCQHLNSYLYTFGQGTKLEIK", 20),
]

# input for lookup
q: Look up Binding signal (MFI): mAb11004 (antibody, V domains shown) VH: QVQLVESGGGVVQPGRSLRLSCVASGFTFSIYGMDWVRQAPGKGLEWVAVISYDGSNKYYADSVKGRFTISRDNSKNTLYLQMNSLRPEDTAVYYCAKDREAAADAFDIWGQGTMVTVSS VL: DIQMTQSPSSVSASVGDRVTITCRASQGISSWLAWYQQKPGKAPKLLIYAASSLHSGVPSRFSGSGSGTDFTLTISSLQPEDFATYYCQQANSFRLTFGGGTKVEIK
a: 26
